assay: MTT assay, cell viability; format: cell-based; conditions: goat (Capra hircus), primary goat testicular cells, mean ± SEM, read-out: percent cell viability
MEASURED_PARAMETER: viability at 6 h, 10 µM (%)

{"COMPOUND": "COc1ccc(-c2c(S(=O)(=O)c3ccccc3)nnn2-c2cccc(S(N)(=O)=O)c2)cc1Br [Compound 10h]", "READOUT_UNITS": "%", "NUMERIC_VALUE": 46.7}
{"COMPOUND": "NS(=O)(=O)c1cccc(-n2nnc(S(=O)(=O)c3ccccc3)c2-c2ccc(Cl)cc2)c1 [Compound 10d]", "READOUT_UNITS": "%", "NUMERIC_VALUE": 32}
